System: RT-112
Test details: cells
Assay type: functional, cell-based, Homo sapiens
Experimental context: rt-112
Description: SANGER: Inhibition of human RT-112 cell growth in a cell viability assay.
Property name: pIC50
Interpret pIC50 as the negative base-10 log of the concentration measured in mol/L.

Sure, the documented pIC50 for BLEOMYCIN is 5.63

====

Measured IC50 values are reported for all entries that follow.
System: EW-18;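 note: growth inhibition of EW-18 cells, read out by a cell viability assay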
Test details: cells
Format: functional, cell-based, Homo sapiens
Experimental context: Homo sapiens, EW-18
Description: SANGER: Inhibition of human EW-18 cell growth in a cell viability assay.

Below, each entry is followed by its recorded IC50 result.
Compound	IC50
COc1cc2ncn(-c3cc(OCc4ccccc4S(C)(=O)=O)c(C#N)s3)c2cc1OC [GSK-319347A]	> 5 µM
O=C(O)c1ccc(-c2c[nH]c3ncc(-c4ccccc4)cc23)cc1C1CCCC1	> 16 µM
CS(=O)(=O)c1ccc(C(=O)Nc2ccc(Cl)c(-c3ccccn3)c2)c(Cl)c1	> 10 µM
C#Cc1cccc(Nc2ncnc3cc(OCCOC)c(OCCOC)cc23)c1	> 2 µM
Cc1cc([N+](=O)[O-])ccc1NS(=O)(=O)c1cc(Cl)ccc1Cl	9.58 µM
CC1(C)CNc2cc(NC(=O)c3cccnc3NCc3ccncc3)ccc21	> 2 µM
Cn1cnc2c(F)c(Nc3ccc(Br)cc3Cl)c(C(=O)NOCCO)cc21	> 4 µM
C=C(c1ccc(C(=O)O)cc1)c1cc2c(cc1C)C(C)(C)CCC2(C)C	> 8 µM
CC(=O)O[C@H]1C(=O)[C@@]2(C)[C@H]([C@H](OC(=O)c3ccccc3)[C@]3(O)C[C@H](OC(=O)[C@H](O)[C@@H](NC(=O)c4ccccc4)c4ccccc4)C(C)=C1C3(C)C)[C@]1(OC(C)=O)CO[C@@H]1C[C@@H]2O	> 0.102 µM
CC(C)CCN1c2nc(Nc3cc(F)c(O)c(F)c3)ncc2N(C)C(=O)C1C (stereo not drawn)	0.622 µM

Sure, the documented IC50 for OCCCNc1cc(-c2ccnc(Nc3cccc(Cl)c3)n2)ccn1 is > 0.256 µM

Sure, the documented IC50 for COc1cc(-c2nn([C@H]3CC[C@H](N4CCN(C(C)=O)CC4)CC3)c3ncnc(N)c23)ccc1NC(=O)c1cc2ccccc2n1C is > 5.12 µM

Sure, the documented IC50 for COc1cc2ncn(-c3cc(OCc4ccccc4C(F)(F)F)c(C(N)=O)s3)c2cc1OC [GW843682X] is > 0.256 µM
